- Measurement target: Transitional endoplasmic reticulum ATPase (Homo sapiens)
- Protocol details: p97 ATPase inhibitors, SAR follow-up, biochemical, hit optimization round 2 (AID 488828)
- Study conditions: purified p97 ATPase, Kinase-Glo ATP luminescence
Activity calls are given as the source filed them.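 The calls were made as follows: active = IC50 at or below 10 µM; inactive = the rest.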
Quantity kind: IC50

Here's what some known entries look like.
1. Cc1cc(F)cc(Nc2nc(NCc3ccccc3)c3ccccc3n2)c1: 700 nM
2. Fc1ccccc1CNc1nc(Nc2cccc(Cl)c2)nc2ccccc12: 1800 nM
3. COc1ccc(Nc2nc(Nc3ccc(OC)cc3)c3ccccc3n2)cc1: inactive
4. Clc1nc(NCc2ccccc2Cl)c2ccccc2n1: > 30000 nM (inactive)
5. Fc1ccc2nc(NCc3ccccc3)nc(NCc3ccccc3)c2c1: 4700 nM

Exam item: So what's the measured IC50 for this one? COc1cccc(CNc2nc(Nc3cccc(Cl)c3)nc3ccccc23)c1
Marked response: 1000 nM

Exam item: Repeat with Clc1nc(NCc2cccc(Br)c2)c2ccccc2n1
Marked response: > 30000 nM (inactive)

Exam item: Repeat with CC(C)n1c2ccccc2c2nnc(SCC(=O)OCN3C(=O)c4ccccc4C3=O)nc21
Marked response: > 30000 nM (inactive)

Exam item: Repeat with Ic1cccc(Nc2nc(NCc3ccccc3)c3ccccc3n2)c1
Marked response: 5200 nM

Exam item: Repeat with Fc1ccccc1-c1nc(NCc2ccccc2)c2ccccc2n1
Marked response: 1100 nM

====

- Measurement target: Transitional endoplasmic reticulum ATPase (Homo sapiens)
- Protocol details: p97 ATPase inhibitors, SAR follow-up, biochemical, hit optimization round 2 (AID 488828)
- Study conditions: purified p97 ATPase, Kinase-Glo ATP luminescence
Activity calls are given as the source filed them.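 Rule for the calls: active = IC50 at or below 10 µM; inactive = the rest.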
Tick one outcome: active, inactive

Before answering, review these 3 worked examples.
1. Cc1ccccc1CNc1nc(Cl)nc2ccccc12: inactive
2. COc1ccc(Nc2nc(NCc3ccccc3)c3ccccc3n2)cc1F: active
3. Clc1nc(NCc2ccccc2Br)c2ccccc2n1: inactive

Exam item: Look up the recorded call for COc1ccccc1CNc1nc(Nc2cccc(Cl)c2)nc2ccccc12 in this test.
Marked response: active

Exam item: Repeat with COc1cccc(CNc2nc(Cl)nc3ccccc23)c1
Marked response: inactive

Exam item: Repeat with COc1cc2nc(NCc3ccccc3)nc(NCc3ccccc3)c2cc1OC
Marked response: active

====

- Measurement target: Transitional endoplasmic reticulum ATPase (Homo sapiens) (UniProt P55072)
- Sequence (P55072 whole entry, looked up): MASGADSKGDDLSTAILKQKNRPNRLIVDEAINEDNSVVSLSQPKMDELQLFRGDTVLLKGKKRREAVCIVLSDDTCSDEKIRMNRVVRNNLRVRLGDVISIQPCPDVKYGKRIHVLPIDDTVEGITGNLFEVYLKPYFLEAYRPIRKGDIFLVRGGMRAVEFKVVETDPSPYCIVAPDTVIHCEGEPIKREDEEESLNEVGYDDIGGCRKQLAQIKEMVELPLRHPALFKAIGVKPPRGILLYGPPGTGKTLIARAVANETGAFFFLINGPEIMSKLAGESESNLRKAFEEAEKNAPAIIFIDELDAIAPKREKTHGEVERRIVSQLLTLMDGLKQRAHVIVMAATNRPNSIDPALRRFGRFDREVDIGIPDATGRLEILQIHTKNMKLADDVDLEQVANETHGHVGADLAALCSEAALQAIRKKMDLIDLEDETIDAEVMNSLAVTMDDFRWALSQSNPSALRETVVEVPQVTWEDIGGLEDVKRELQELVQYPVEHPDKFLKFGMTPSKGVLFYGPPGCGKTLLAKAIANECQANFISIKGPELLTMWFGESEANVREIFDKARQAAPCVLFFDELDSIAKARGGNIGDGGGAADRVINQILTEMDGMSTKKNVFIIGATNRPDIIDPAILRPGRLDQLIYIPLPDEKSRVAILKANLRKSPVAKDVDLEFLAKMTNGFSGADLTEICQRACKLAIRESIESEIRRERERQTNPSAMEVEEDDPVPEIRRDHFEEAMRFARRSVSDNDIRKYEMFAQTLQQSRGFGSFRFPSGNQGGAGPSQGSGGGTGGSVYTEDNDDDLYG
- Protocol details: p97 ATPase inhibitors, SAR follow-up, biochemical, hit optimization round 2 (AID 488828)
- Study conditions: purified p97 ATPase, Kinase-Glo ATP luminescence
Active and inactive are the calls of the source.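 Rule for the calls: active = IC50 at or below 10 µM; inactive = the rest.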
Tick one outcome: label 1 for active, label 0 for inactive

Before answering, review these 6 worked examples.
1) Cc1ccc(C2=[N+]([O-])C3(CCCCC/C3=N\O)N(O)C2(C)C)o1 (stereo unspecified): label 0
2) c1ccc(CNc2nc(N3CCNc4ccccc43)nc3ccccc23)cc1: label 1
3) Fc1cccc(CNc2nc(Cl)nc3ccccc23)c1: label 0
4) Fc1ccc2c(NCc3ccccc3)nc(NCc3ccccc3)nc2c1: label 1
5) O=[N+]([O-])c1cccc(Nc2nc(NCc3ccccc3)c3ccccc3n2)c1: label 1
6) Fc1ccccc1CNc1nc(Cl)nc2ccccc12: label 0

Exam item: Look up the recorded call for COc1ccc(C)cc1NC(=O)c1[nH]c(C)c(C(C)=O)c1C in this test.
Marked response: label 0

Exam item: Repeat with Cc1ccc(Nc2nc(NCc3ccccc3)c3ccccc3n2)cc1F
Marked response: label 1

Exam item: Repeat with Cc1ccc(F)cc1Nc1nc(NCc2ccccc2)c2ccccc2n1
Marked response: label 1

Exam item: Repeat with CCOC(=O)NC(NC(=O)OCC)C(=O)c1ccc(F)cc1
Marked response: label 0

Exam item: Repeat with O=C(C1CCCN(S(=O)(=O)c2cnc[nH]2)C1)N(CCc1ccccc1)Cc1ccccc1 (stereo unspecified)
Marked response: label 0

// provenance: PubChem BioAssay AID488828
